Can you tell me inhibition at 5 µM for the items I'm about to list?
System: smHDAC8 (Schistosoma mansoni)
Construct: made in house; host or cells: E. coli
Sequence (A5H660 1-440): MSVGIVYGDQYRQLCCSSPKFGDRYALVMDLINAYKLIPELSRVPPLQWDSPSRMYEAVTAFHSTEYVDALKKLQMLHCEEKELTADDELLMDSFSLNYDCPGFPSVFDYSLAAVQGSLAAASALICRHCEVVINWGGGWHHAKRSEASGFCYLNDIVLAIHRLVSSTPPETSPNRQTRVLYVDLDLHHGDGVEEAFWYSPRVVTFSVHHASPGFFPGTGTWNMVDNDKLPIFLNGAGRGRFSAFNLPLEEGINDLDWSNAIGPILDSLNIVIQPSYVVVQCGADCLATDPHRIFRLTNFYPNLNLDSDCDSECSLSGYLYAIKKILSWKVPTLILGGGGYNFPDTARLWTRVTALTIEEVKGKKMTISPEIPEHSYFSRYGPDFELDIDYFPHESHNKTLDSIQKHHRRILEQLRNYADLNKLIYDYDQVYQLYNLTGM
Experiment: biochemical
Type: biochemical
Applied conditions: 5 μM; pretest; read-out: smHDAC8 % inhibition @ 5 μM (Fluor de Lys)
Numbers only, in %.

Solved cases (3 shown):
*Q* Look at this compound and give its reported inhibition at 5 µM. Cc1ccc(Oc2ccc(Cl)cc2-n2cc(C(=O)NO)nn2)cc1
*A* 49.8

*Q* Look at this compound and give its reported inhibition at 5 µM. O=C(NO)c1cn(-c2cc(Cl)ccc2Oc2ccccc2)nn1
*A* 51.4

*Q* Look at this compound and give its reported inhibition at 5 µM. O=C(NO)c1cn(-c2cc(Cl)ccc2Oc2ccc(F)cc2)nn1
*A* 66.2

// each compound listed below needs its inhibition at 5 µM
1. O=C(NO)c1cn(-c2cc(Cl)ccc2O)nn1
2. O=C(NO)c1cn(-c2ccccc2O)nn1
3. O=C(NO)c1cn(-c2ccccc2Oc2ccccc2)nn1
4. O=C(NO)c1cn(-c2ccccc2C(=O)c2ccccc2)nn1

*A*
[14.5, 19.5, 49.1, 23.4]

* * *

Can you tell me inhibition at 50 µM for the items I'm about to list?
System: smHDAC8 (Schistosoma mansoni)
Construct: made in house; host or cells: E. coli
Experiment: biochemical
Format: biochemical
Applied conditions: 50 μM; pretest; read-out: smHDAC8 % inhibition @ 50 μM (Fluor de Lys)
Numbers only, in %.

// each compound listed below needs its inhibition at 50 µM
1. O=C(NO)c1cn(-c2cc(Cl)ccc2OCc2ccc(I)cc2)nn1
2. O=C(NO)c1cn(-c2cc(Cl)ccc2O)nn1
3. Cc1ccc(Oc2ccc(Cl)cc2-n2cc(C(=O)NO)nn2)cc1
4. O=C(NO)c1cn(-c2cc(Cl)ccc2Oc2ccccc2)nn1
5. O=C(NO)c1cn(-c2ccccc2Oc2ccccc2)nn1
6. O=C(NO)c1cn(-c2cc(Cl)ccc2OCc2ccc3ccccc3c2)nn1
7. O=C(NO)c1cn(-c2ccccc2C(=O)c2ccccc2)nn1
8. O=C(NO)c1cn(-c2cc(Cl)ccc2Oc2ccc(F)cc2)nn1

*A*
21
67.3
91.1
91.5
87.9
43.5
75.4
93.4

*Q* Look at this compound and give its reported inhibition at 50 µM. O=C(NO)c1cn(-c2ccccc2O)nn1
*A* 63.5

* * *

Can you tell me melting point for the items I'm about to list?
Give bare numbers, in °C.

Solved cases (3 shown):
*Q* Look at this molecule and give its reported melting point. O=C(NO)c1cn(CCc2ccccc2)nn1
*A* 178

*Q* Look at this molecule and give its reported melting point. O=C(NO)c1cn(Cc2ccccc2)nn1
*A* 183

*Q* Look at this molecule and give its reported melting point. O=C(NO)c1cn(Cc2ccc(C(F)(F)F)cc2)nn1
*A* 192

More entries:
*Q* Look at this molecule and give its reported melting point. O=C(NO)c1cn(CCCc2ccccc2)nn1
*A* 182

* * *

System: hsHDAC1 (Homo sapiens)
Sequence (Q13547 whole entry): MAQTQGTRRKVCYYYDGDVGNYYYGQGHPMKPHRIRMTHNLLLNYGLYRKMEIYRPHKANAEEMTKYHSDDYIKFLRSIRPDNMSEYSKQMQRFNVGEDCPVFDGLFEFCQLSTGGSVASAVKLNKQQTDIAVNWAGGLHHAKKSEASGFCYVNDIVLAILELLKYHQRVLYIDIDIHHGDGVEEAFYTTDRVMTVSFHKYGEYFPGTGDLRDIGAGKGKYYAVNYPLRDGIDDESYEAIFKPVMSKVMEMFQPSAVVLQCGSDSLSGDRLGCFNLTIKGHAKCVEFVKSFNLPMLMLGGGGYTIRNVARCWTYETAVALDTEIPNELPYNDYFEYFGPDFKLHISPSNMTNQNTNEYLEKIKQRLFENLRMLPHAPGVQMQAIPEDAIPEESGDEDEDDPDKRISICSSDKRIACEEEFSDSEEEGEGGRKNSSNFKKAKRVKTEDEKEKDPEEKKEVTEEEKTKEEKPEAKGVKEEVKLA
Experiment: In vitro hsHDAC1 inhibition (ZMAL substrate, trypsin developer)
Assay type: biochemical
Applied conditions: @ 10 μM; read-out: hsHDAC1 (% inhibition, ZMAL)
Can you tell me inhibition at 10 µM for the items I'm about to list?
Give bare numbers, in %.

Solved cases (3 shown):
*Q* Look at this compound and give its reported inhibition at 10 µM. O=C(NO)c1cn(-c2ccccc2)nn1
*A* 8.1

*Q* Look at this compound and give its reported inhibition at 10 µM. O=C(NO)c1cn(Cc2ccc(C(F)(F)F)cc2)nn1
*A* 3.3

*Q* Look at this compound and give its reported inhibition at 10 µM. O=C(NO)c1cn(CCc2ccccc2)nn1
*A* 1.7

Okay, now this compound:
*Q* Look at this compound and give its reported inhibition at 10 µM. O=C(NO)c1cn(CCCc2ccccc2)nn1
*A* 5.4

Cited source for all entries: paper PMC7187165
